All values here come from PubChem BioAssay (NCI).

test system: NCI-H226 lung; test: NCI-60 one-dose screen, 48 h; conditions: 10 µM unless noted
This is part of a sample that, as a whole, favours compounds with a hit. Of some 83,000 tested, about 20% had one in any assay. Calls of active or inactive are those of the source. How the source made its calls: active means growth percent below 10; inactive means the rest.
Outcomes: label 1 = active, label 0 = inactive

Compound	Assigned Label
O=C1Nc2ccccc2/C1=C/C(=N/c1nnc(-c2ccc(Cl)cc2)s1)c1ccccc1	label 0
C/C=C/C(N)=O	label 0
CC/C=C\C[C@H](O)C/C=C1/C(=O)C=C[C@@H]1C/C=C\CCCC(=O)NC(C)C	label 1
COc1ccc(CN2C(=O)/C(=C\c3cc(OC)c(OC)c(OC)c3)c3cc(OC)ccc32)cc1	label 1
CCN(CC)CC(C)Nc1ccc([N+](=O)[O-])c2sc3ccccc3c(=O)c12 (stereo not given)	label 0
CCOC(=O)CC(C)=N	label 0
Nc1nc2c(c3ncccc13)C(c1cccc(Br)c1)Cc1ncccc1-2 (stereo not given)	label 0
O=c1[nH]c(-c2ccccn2)nc2sc3c(c12)CCCCC3	label 0
CC/C=C\C[C@H](F)C/C=C1/C(=O)C=C[C@@H]1C/C=C\CCCC(=O)O	label 0
CCn1cc2c(cc1=O)-c1nc3ccccc3c3ccnc(c13)C2=O	label 0
CCN(CC)CCCNc1cccc2c(SCc3ccccc3)ccnc12	label 0
C=C(C[n+]1ccccc1)[C@@H]1CC[C@]2(C(=O)OC)CC[C@]3(C)[C@H](CC[C@@H]4[C@@]5(C)CC[C@H](O)C(C)(C)[C@@H]5CC[C@]43C)[C@@H]12	label 0
O=[N+]([O-])c1cccc(-c2nc3sccn3c2-c2ccnc(NCCCNS(=O)(=O)c3cccc(F)c3)n2)c1	label 1
CC(=O)C1=C(O)C=C2Oc3c(C(=O)/C=C/c4cc(C(F)(F)F)cc(C(F)(F)F)c4)c(O)c(C)c(O)c3[C@]2(C)C1=O	label 1
COc1ccc(S(=O)(=O)NCCCNc2nccc(-c3c(-c4cccc(N)c4)nc4sccn34)n2)cc1	label 0
COc1ccc(/C=N\NC(=O)CN2CCN(c3cc4c(cc3F)c(=O)c(C(=O)N/N=C/c3ccc(OC)cc3)cn4C3CC3)CC2)cc1	label 0
N#Cc1c(N)nc(N)nc1Nc1ccc(Br)cc1	label 0
Cc1cc(Nc2nc(N3CCN(C)CC3)nc3ccccc23)n[nH]1	label 0
O=C1/C(=C/c2ccccc2)CN(CCC(=O)N2C/C(=C\c3ccccc3)C(=O)/C(=C/c3ccccc3)C2)C/C1=C\c1ccccc1	label 0
COc1cc(NCCCCN=C(N)NC(N)=NC(C)C)c2ncccc2c1	label 0
O=C(Nc1nc(-c2ccccc2)cc(-c2ccc(Cl)cc2)n1)c1ccncc1	label 0
COc1cc2cc(COc3nccc(-c4ccc(Cl)cc4)n3)c(=O)[nH]c2cc1OC	label 0
COc1cc(OC)c(/C=C/S(=O)(=O)Cc2ccc(OC)c(N)n2)c(OC)c1	label 0
COc1ccc(-c2cn3c(ccc4ccccc43)n2)cc1	label 0
C=C1CCC2C3(C)COC(c4ccc(OC)cc4Br)OC3CCC2(C)C1/C=C/C1=CCOC1=O (stereo not given)	label 0
COC(=S)SCN(CSC(=S)OC)c1ccc(Cl)cc1	label 0
S=c1[nH]nc(CSc2ncnc3c2c(-c2ccccc2)cn3-c2ccc(Cl)cc2)o1	label 0
COc1cc(/C=N\NC(=O)CN2CCN(c3cc4c(cc3F)c(=O)c(C(=O)N/N=C/c3ccc(O)c(OC)c3)cn4C3CC3)CC2)ccc1O	label 0
NC1=CC(=O)C(=O)c2ccccc21	label 0
CS(CCCCN=C=S)=NC(=O)c1c(F)c(F)c(F)c(F)c1F (stereo not given)	label 0
NC(CC(=O)O)C(=O)OCc1ccccc1 (stereo not given)	label 0
COc1ccc(Cl)cc1Nc1nc(C(F)(F)F)ccc1C(=O)N/N=C/c1cccnc1	label 0
Oc1ccc2c(=S)cc(-c3ccc(Br)cc3)oc2c1O	label 0
c1ccc2sc(SCCCn3ccnc3)nc2c1	label 0
COc1c2ccccc2c(OC)c2[nH]c(=O)ccc12	label 0
COC(/C=C/c1ccc([N+](=O)[O-])cc1)OC	label 0
COc1ccc(/C=C2\N=C3Sc4cc(Cl)ccc4C(=O)N3C2=O)cc1	label 0
CC(=O)C1=C(O)C=C2Oc3c(C(=O)/C=C/c4ccccc4)c(O)c(C)c(O)c3[C@]2(C)C1=O	label 0
COc1cnc2c(c1)C(=O)c1c-2n(CCCN2CCN(C)CC2)c(=O)c2cc([N+](=O)[O-])ccc12	label 0
COC(=O)[C@H](C(C)C)n1c(=O)c2cc(OC)c(OC)cc2c2cnc3[nH]ccc3c21	label 0
